Value source: patent US20080032921A1

Record form. Attribute: log10 of IC50. Fill in for each entry.
molecular target: HLA-DR DRB1*0404 (human); test: competition with 125I-labelled peptide, purified HLA
Each number you see is log10 of IC50, and the unit inside the log is nM.

Some binders with known log10 of IC50 results, for comparison:
- binder: "TKKMVTQRTIGKKKQ (modifications not checked) [Flu.PB1.199]"
  log10 of IC50: 1.79
- binder: "EECLINDPWVLLNAS (modifications not checked) [Flu.PA.694]"
  log10 of IC50: 2.26
- binder: "YIQMCTELKLSDYEG (modifications not checked) [Flu.NP.43]"
  log10 of IC50: 3.21
- binder: "LEGFSAESRKLLLVV (modifications not checked) [Flu.PA.658]"
  log10 of IC50: 3.06

Could you now look at the following binder, please?
If you can, please state the reported log10 of IC50 value of SLMLQIGNMISIWVSHS (modifications not checked) [Flu.NA.21] .
0.48
